Target: KIT wt (Homo sapiens)
Sequence (P10721 544-935): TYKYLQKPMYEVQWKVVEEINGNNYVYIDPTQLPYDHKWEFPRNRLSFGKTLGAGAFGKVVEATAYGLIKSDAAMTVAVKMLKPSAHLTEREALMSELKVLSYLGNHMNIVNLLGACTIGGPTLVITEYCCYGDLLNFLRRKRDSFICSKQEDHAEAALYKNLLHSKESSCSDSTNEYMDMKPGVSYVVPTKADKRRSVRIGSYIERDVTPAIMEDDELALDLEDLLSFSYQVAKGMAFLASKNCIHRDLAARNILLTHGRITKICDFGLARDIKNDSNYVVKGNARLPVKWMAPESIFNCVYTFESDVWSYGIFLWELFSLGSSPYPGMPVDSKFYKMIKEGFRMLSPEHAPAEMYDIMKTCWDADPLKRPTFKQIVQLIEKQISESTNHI
RECORDED METRIC: Kd (µM)
Give bare numbers, in µM.

Ask | State the recorded Kd for this entry: COc1cc(C(=O)NCC(=O)Nc2ccc3c(/C=C/c4ccccn4)n[nH]c3c2)cc(OC)c1OC [CHMFL-KIT-031]
Reply | 6.64

====

Biological target: KIT V654A (Homo sapiens, UniProt P10721, V654A)
Sequence (P10721 546-976 V654A): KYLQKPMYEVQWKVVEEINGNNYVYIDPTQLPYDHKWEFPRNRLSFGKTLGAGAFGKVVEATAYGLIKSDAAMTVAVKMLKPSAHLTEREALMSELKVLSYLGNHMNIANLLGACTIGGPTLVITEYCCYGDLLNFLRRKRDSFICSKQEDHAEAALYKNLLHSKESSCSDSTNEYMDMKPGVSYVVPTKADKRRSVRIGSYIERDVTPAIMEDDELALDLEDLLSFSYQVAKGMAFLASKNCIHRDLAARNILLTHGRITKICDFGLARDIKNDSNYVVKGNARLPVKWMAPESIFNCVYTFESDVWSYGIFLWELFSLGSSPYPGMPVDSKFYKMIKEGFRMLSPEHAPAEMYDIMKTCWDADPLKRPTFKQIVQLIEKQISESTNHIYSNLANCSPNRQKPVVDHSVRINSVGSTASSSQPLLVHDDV
Assay: KIT auto-phosphorylation in transformed BaF3 cells
Conditions: EC50 pY823 auto-phosphorylation, 2h
RECORDED METRIC: EC50 (µM)
Give bare numbers, in µM.

Ask | Query: EC50; subject: COc1cc(C(=O)NCC(=O)Nc2ccc3c(/C=C/c4ccccn4)n[nH]c3c2)cc(OC)c1OC [CHMFL-KIT-031]
Reply | 4.6
